Ratio IC50 reference
# Species on record: Homo sapiens
# Experiment: Selectivity index, ratio of IC50 for recombinant human MAO-A to IC50 for recombinant human MAO-B

Recorded Ratio IC50, per entry:
CN1CCN(CCCOc2ccc(/C=C3\COc4ccccc4C3=O)cc2)CC1 = > 4.41
O=C1/C(=C/c2ccc(O)cc2)COc2ccccc21 = > 413

Prompt: Identify the reported Ratio IC50 for the following entry. CN(CCCCCCOc1ccc(/C=C2\COc3ccccc3C2=O)cc1)Cc1ccccc1
Response: > 1

====

# Tested System: Cholinesterase (Equus caballus)
# Sequence (P81908 whole entry): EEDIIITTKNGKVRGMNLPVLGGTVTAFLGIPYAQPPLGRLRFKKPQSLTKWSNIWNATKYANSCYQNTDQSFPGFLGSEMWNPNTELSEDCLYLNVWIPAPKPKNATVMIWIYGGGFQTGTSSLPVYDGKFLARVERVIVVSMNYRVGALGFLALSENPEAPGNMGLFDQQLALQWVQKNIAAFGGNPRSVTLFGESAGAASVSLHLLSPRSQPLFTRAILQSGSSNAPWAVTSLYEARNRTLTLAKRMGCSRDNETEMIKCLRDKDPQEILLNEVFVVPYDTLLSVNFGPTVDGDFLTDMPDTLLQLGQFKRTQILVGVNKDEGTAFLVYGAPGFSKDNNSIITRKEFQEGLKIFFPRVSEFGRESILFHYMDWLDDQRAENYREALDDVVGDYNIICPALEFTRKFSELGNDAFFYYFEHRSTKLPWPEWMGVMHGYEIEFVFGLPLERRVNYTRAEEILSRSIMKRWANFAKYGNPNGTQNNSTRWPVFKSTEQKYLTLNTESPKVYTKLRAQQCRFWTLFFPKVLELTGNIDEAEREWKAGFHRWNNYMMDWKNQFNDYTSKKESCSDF
# Experiment: Inhibition of equine serum BuChE using S-butyrylthiocholine iodide as substrate preincubated for 5 mins followed by substrate addition measured at 1 to 3 mins time interval by Ellman's method
Quick rule for you: IC50 under 20 µM gets Fulfilled, anything else gets Not fulfilled.

Example cases with answers are listed next.
CCN(CCCOc1ccc(/C=C2\COc3ccccc3C2=O)cc1)Cc1ccccc1 = Fulfilled
CCN(CCCCCCOc1ccc(/C=C2\COc3ccccc3C2=O)cc1)Cc1ccccc1 = Not fulfilled

Prompt: Lab note: IC50 threshold 20 µM. Does this molecule come in strictly under it? CCN(CC)CCOc1ccc(/C=C2\COc3ccccc3C2=O)cc1
Response: Not fulfilled

Prompt: Lab note: IC50 threshold 20 µM. Does this molecule come in strictly under it? CCN(CC)CCOc1ccccc1/C=C1\COc2ccccc2C1=O
Response: Fulfilled

Prompt: Lab note: IC50 threshold 20 µM. Does this molecule come in strictly under it? CCN(CC)CCCCOc1ccc(/C=C2\COc3ccccc3C2=O)cc1
Response: Fulfilled

Prompt: Lab note: IC50 threshold 20 µM. Does this molecule come in strictly under it? CN(CCCCCCOc1ccc(/C=C2\COc3ccccc3C2=O)cc1)Cc1ccccc1
Response: Not fulfilled

====

What follows is a record of IC50 for Acetylcholinesterase (Electrophorus electricus).

CN(C)CCCCOc1ccc(/C=C2\COc3ccccc3C2=O)cc1 = 12.3 µM
CN1CCN(CCCCOc2ccc(/C=C3\COc4ccccc4C3=O)cc2)CC1 = 13 µM
CCN(CC)CCCOc1ccccc1/C=C1\COc2ccccc2C1=O = 54.8 µM
CN(C)CCOc1ccc(/C=C2\COc3ccccc3C2=O)cc1 = 0.89 µM
CN(C)CCCOc1cccc(/C=C2\COc3ccccc3C2=O)c1 = 4.97 µM

Attention now shifts to the item below.
Prompt: For Acetylcholinesterase (Electrophorus electricus), give the measured IC50 of the entry CCN(CC)CCCCOc1ccc(/C=C2\COc3ccccc3C2=O)cc1
Response: 6.1 µM

Values compiled from ChEMBL document CHEMBL4261537.
